# MEASURED ON: Abl kinase (Homo sapiens)
# Sequence (P00519 229-512): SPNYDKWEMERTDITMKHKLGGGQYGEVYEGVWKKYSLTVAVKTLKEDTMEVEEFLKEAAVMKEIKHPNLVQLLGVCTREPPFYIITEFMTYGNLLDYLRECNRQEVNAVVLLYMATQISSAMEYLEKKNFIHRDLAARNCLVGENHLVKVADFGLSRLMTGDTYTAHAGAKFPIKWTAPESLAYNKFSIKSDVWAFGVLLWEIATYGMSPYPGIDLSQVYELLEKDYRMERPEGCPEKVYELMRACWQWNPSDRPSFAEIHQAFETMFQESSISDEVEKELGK
# ASSAY REMARKS: Abl kinase assay A1 (pyruvate kinase/lactate dehydrogenase coupled, spectrophotometric)
# Assay type: biochemical
# PARTICULARS: Method A1; read-out: Abl Data (IC50)
# Procedure: IC50 values were calculated from a series of percent inhibition values determined at a range of inhibitor concentrations using software routines as implemented in the GraphPad Prism software package.
pIC50: −log10 of the molar value.
RECORDED ENDPOINT: pIC50

compound=CC(C)(C)c1cc(NC(=O)Nc2ccc3c(c2)OCO3)n(-c2cccc(C#N)c2)n1 recorded_endpoint=pIC50 recorded_number=5.52
compound=CCOC(=O)c1cc(-n2nc(C(C)(C)C)cc2NC(=O)Nc2cccc(Cl)c2Cl)cc2ccccc12 recorded_endpoint=pIC50 recorded_number=5.33
compound=CC(C)(C)c1cc(NC(=O)Nc2cccc(Cl)c2Cl)n(-c2ccc3c(c2)CCCN3C(=N)N)n1 recorded_endpoint=pIC50 recorded_number=7.00
compound=CC(C)(C)c1cc(NC(=O)Nc2cc(F)cc(F)c2F)n(-c2ccc3ncccc3c2)n1 recorded_endpoint=pIC50 recorded_number=6.92
compound=CC(C)(C)c1cc(NC(=O)Nc2ccc(F)cc2F)n(-c2cc(CC(N)=O)c3ccccc3c2)n1 recorded_endpoint=pIC50 recorded_number=6.44
compound=CC(C)(C)c1cc(NC(=O)Nc2cccc(Cl)c2Cl)n(-c2ccc3c(c2)C(=O)NCC3)n1 recorded_endpoint=pIC50 recorded_number=5.55
compound=CC(C)(C)c1cc(NC(=O)Nc2ccc(Cl)cc2)n(-c2cc(CO)c3ccccc3c2)n1 recorded_endpoint=pIC50 recorded_number=6.09
compound=CC(C)(C)c1cc(NC(=O)Nc2cccc(Cl)c2Cl)n(-c2cc(CC(N)=O)c3ccccc3c2)n1 recorded_endpoint=pIC50 recorded_number=7.14
compound=CC(C)(C)c1cc(NC(=O)Nc2cccc(F)c2F)n(-c2cccc(C#N)c2)n1 recorded_endpoint=pIC50 recorded_number=5.54
compound=CC(C)(C)c1cc(NC(=O)Nc2cccc(Cl)c2Cl)n(-c2cccc(CN)c2)n1 recorded_endpoint=pIC50 recorded_number=5.82
compound="CC(C)(C)c1cc(NC(=O)Nc2cccc(Cl)c2Cl)n(-c2ccc3c(c2)C(O)CC3)n1 (centres unmarked)" recorded_endpoint=pIC50 recorded_number=6.62
compound=CC(C)(C)c1cc(NC(=O)Nc2cccc(Cl)c2Cl)n(-c2ccc3c(c2)CCNC(=O)C3)n1 recorded_endpoint=pIC50 recorded_number=6.70
compound=CC(C)(C)c1cc(NC(=O)Nc2cccc(Cl)c2Cl)n(-c2ccc3c(c2)NCC3)n1 recorded_endpoint=pIC50 recorded_number=6.32
compound=CC(C)(C)c1cc(NC(=O)Nc2ccc(Cl)cc2)n(-c2cccc(C#N)c2)n1 recorded_endpoint=pIC50 recorded_number=5.28
compound=CC(C)(C)c1cc(NC(=O)Nc2cccc(Cl)c2Cl)n(-c2cccc(CO)c2)n1 recorded_endpoint=pIC50 recorded_number=6.51
compound=CC(C)(C)c1cc(NC(=O)Nc2cccc(Cl)c2Cl)n(-c2ccc3c(c2)C(N)=NCC3)n1 recorded_endpoint=pIC50 recorded_number=6.57
compound=CC(C)(C)c1cc(NC(=O)Nc2cccc(Cl)c2Cl)n(-c2ccc3c(c2)CCC(=O)N3)n1 recorded_endpoint=pIC50 recorded_number=6.55
compound=CC(C)(C)c1cc(NC(=O)Nc2cccc(Cl)c2Cl)n(-c2cccc(CC(=O)NC[C@H](O)CO)c2)n1 recorded_endpoint=pIC50 recorded_number=6.14
compound=CC(C)(C)c1cc(NC(=O)Nc2cccc(Cl)c2Cl)n(-c2ccc3ncccc3c2)n1 recorded_endpoint=pIC50 recorded_number=6.85
compound=COc1cccc(-n2nc(C(C)(C)C)cc2NC(=O)Nc2cc(Cl)cc(Cl)c2)c1 recorded_endpoint=pIC50 recorded_number=5.62
compound=CC(=O)c1cc(-n2nc(C(C)(C)C)cc2NC(=O)Nc2cccc(Cl)c2Cl)cc2ccccc12 recorded_endpoint=pIC50 recorded_number=6.82
compound=CC(C)(C)c1cc(NC(=O)Nc2cc(F)cc(F)c2F)n(-c2ccc3c(c2)CCN3S(C)(=O)=O)n1 recorded_endpoint=pIC50 recorded_number=6.85
compound=CC(C)(C)c1cc(NC(=O)Nc2cc(F)c(F)cc2F)n(-c2ccc3ncccc3c2)n1 recorded_endpoint=pIC50 recorded_number=6.44

###

# MEASURED ON: Abl kinase (Homo sapiens)
# ASSAY REMARKS: Abl kinase assay A2 (as A1, 1.1 nM enzyme, 2 h pre-incubation, 0.5 mM ATP)
# Assay type: biochemical
# PARTICULARS: Method A2; read-out: Abl Data (IC50)
RECORDED ENDPOINT: IC50

compound="CC(C)(C)c1cc(NC(=O)Nc2ccc(-c3cccc4c3CNC4=O)cc2)n(-c2ccc3c(c2)CC(C(=O)O)NC3)n1 (stereo not shown)" result="6.6 nM"
compound="CC(C)(C)c1cc(NC(=O)Nc2cc(F)c(F)cc2F)n(-c2cc(CC(=O)NCC(O)CO)c3ccccc3c2)n1 (stereo not shown)" result="130 nM"
compound=CC(C)(C)c1cc(NC(=O)Nc2cccc(Oc3cccnc3)c2)n(-c2ccc3[nH]ccc3c2)n1 result="6.6 nM"
compound=CNC(=O)c1cc(Oc2ccc(NC(=O)Nc3cc(C4CCCC4)nn3-c3ccc4[nH]c(=O)ccc4c3)cc2)ccn1 result="6.3 nM"

###

Below, each entry is listed alongside its reported IC50.
# MEASURED ON: B-Raf(V599E) kinase (Homo sapiens, UniProt P15056, V600E)
# Sequence (P15056 with tags, fused parts or gaps V600E): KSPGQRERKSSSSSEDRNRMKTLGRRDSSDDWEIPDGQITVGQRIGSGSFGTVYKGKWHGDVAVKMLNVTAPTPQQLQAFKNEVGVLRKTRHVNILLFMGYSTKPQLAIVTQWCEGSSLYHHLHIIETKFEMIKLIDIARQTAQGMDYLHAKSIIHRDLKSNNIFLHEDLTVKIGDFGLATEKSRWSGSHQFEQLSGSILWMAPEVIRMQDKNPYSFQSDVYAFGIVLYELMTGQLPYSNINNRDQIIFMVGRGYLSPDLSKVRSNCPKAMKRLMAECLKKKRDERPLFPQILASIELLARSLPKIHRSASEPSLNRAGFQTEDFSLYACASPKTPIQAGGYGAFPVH
# ASSAY REMARKS: B-Raf(V599E) kinase assay B1 (construct 1, MEK1 substrate, coupled spectrophotometric)
# Format: biochemical
RECORDED ENDPOINT: IC50 (nM)

molecule="CC(C)(C)c1cc(NC(=O)Nc2cccc(Cl)c2Cl)n(-c2ccc(C(C)(C)O)cc2)n1 [Example 20]" measured_on="B-Raf(V599E) kinase (Homo sapiens, UniProt P15056, V600E)" u=nM recorded_number=8.5
molecule="CC(C)(C)c1cc(NC(=O)Nc2ccc(F)cc2)n(-c2ccc3c(c2)CCC(=O)N3)n1 [Example 317]" measured_on="B-Raf(V599E) kinase (Homo sapiens, UniProt P15056, V600E)" u=nM recorded_number=36
molecule="CC(C)(C)c1cc(NC(=O)Nc2cc(F)cc(F)c2F)n(-c2cc(CC(=O)NCC(O)CO)c3ccccc3c2)n1 (stereo not drawn) [Example 95]" measured_on="B-Raf(V599E) kinase (Homo sapiens, UniProt P15056, V600E)" u=nM recorded_number=2.9

###

# MEASURED ON: B-Raf(V599E) kinase (Homo sapiens, UniProt P15056, V600E)
# ASSAY REMARKS: B-Raf(V599E) kinase assay B1 (construct 1, MEK1 substrate, coupled spectrophotometric)
# Format: biochemical
RECORDED ENDPOINT: IC50 (nM)

molecule="CC(C)(C)c1cc(NC(=O)Nc2cccc(F)c2F)n(-c2cccc(CO)c2)n1 [Example 220]" measured_on="B-Raf(V599E) kinase (Homo sapiens, UniProt P15056, V600E)" recorded_number=33
molecule="COc1ccc(-n2nc(C(C)(C)C)cc2NC(=O)Nc2cccc(F)c2F)cc1 [Example 241]" measured_on="B-Raf(V599E) kinase (Homo sapiens, UniProt P15056, V600E)" recorded_number=24
molecule="CC(C)(C)c1cc(NC(=O)Nc2cccc(Oc3cccnc3)c2)n(-c2ccc3[nH]c(=O)ccc3c2)n1 [Example 156]" measured_on="B-Raf(V599E) kinase (Homo sapiens, UniProt P15056, V600E)" recorded_number=4.1
molecule="CC(C)(C)c1cc(NC(=O)Nc2cccc(Oc3cccnc3)c2)n(-c2cc(CO)c3ccccc3c2)n1 [Example 67]" measured_on="B-Raf(V599E) kinase (Homo sapiens, UniProt P15056, V600E)" recorded_number=4.8
molecule="C[C@H](NC(=O)Nc1cc(C(C)(C)C)nn1-c1cccc(C#N)c1)c1ccccc1 [Example 211]" measured_on="B-Raf(V599E) kinase (Homo sapiens, UniProt P15056, V600E)" recorded_number=785
molecule="CC(C)(C)c1cc(NC(=O)Nc2cccc(Cl)c2Cl)n(-c2ccc3c(c2)C(O)CC3)n1 (centres unmarked) [Example 103]" measured_on="B-Raf(V599E) kinase (Homo sapiens, UniProt P15056, V600E)" recorded_number=4.5
molecule="CC(C)(C)c1cc(NC(=O)Nc2cc(F)cc(F)c2F)n(-c2ccc3[nH]c(=O)ccc3c2)n1 [Example 331]" measured_on="B-Raf(V599E) kinase (Homo sapiens, UniProt P15056, V600E)" recorded_number=3.4
molecule="CC(C)NC(=O)Cc1cccc(-n2nc(C(C)(C)C)cc2NC(=O)Nc2cccc(Cl)c2Cl)c1 [Example 441]" measured_on="B-Raf(V599E) kinase (Homo sapiens, UniProt P15056, V600E)" recorded_number=6.4
molecule="CC(C)(C)c1cc(NC(=O)Nc2ccccc2)n(-c2cc(CC(N)=O)c3ccccc3c2)n1 [Example 88]" measured_on="B-Raf(V599E) kinase (Homo sapiens, UniProt P15056, V600E)" recorded_number=12
molecule="CC(C)(C)c1cc(NC(=O)Nc2cccc(Cl)c2Cl)n(-c2ccc3c(c2)CNCC3)n1 [Example 123]" measured_on="B-Raf(V599E) kinase (Homo sapiens, UniProt P15056, V600E)" recorded_number=4.9
molecule="CC(C)(C)c1cc(NC(=O)Nc2cccc(Oc3cccnc3)c2)n(-c2ccc3c(c2)CCN3)n1 [Example 119]" measured_on="B-Raf(V599E) kinase (Homo sapiens, UniProt P15056, V600E)" recorded_number=9.1
molecule="CC(C)(C)c1cc(NC(=O)Nc2cccc(F)c2F)n(-c2ccc3c(c2)CCN3)n1 [Example 307]" measured_on="B-Raf(V599E) kinase (Homo sapiens, UniProt P15056, V600E)" recorded_number=10
molecule="CC(=O)c1cc(-n2nc(C(C)(C)C)cc2NC(=O)Nc2cccc(Cl)c2Cl)cc2ccccc12 [Example 100]" measured_on="B-Raf(V599E) kinase (Homo sapiens, UniProt P15056, V600E)" recorded_number=6.9
molecule="CC(C)(C)c1cc(NC(=O)Nc2cccc(Cl)c2Cl)n(-c2cccc(CC(=O)NCCO)c2)n1 [Example 37]" measured_on="B-Raf(V599E) kinase (Homo sapiens, UniProt P15056, V600E)" recorded_number=5.7
molecule="CC(C)(C)c1cc(NC(=O)Nc2ccc(F)cc2F)n(-c2ccc3[nH]c(=O)ccc3c2)n1 [Example 332]" measured_on="B-Raf(V599E) kinase (Homo sapiens, UniProt P15056, V600E)" recorded_number=4.4
molecule="CC(C)(C)c1cc(NC(=O)Nc2cc(F)c(F)cc2F)n(-c2ccc3c(c2)CCNC3)n1 [Example 146]" measured_on="B-Raf(V599E) kinase (Homo sapiens, UniProt P15056, V600E)" recorded_number=8.8
molecule="CC(C)(C)c1cc(NC(=O)Nc2ccccc2F)n(-c2cc(CC(N)=O)c3ccccc3c2)n1 [Example 89]" measured_on="B-Raf(V599E) kinase (Homo sapiens, UniProt P15056, V600E)" recorded_number=5.5
molecule="COc1cccc(-n2nc(C(C)(C)C)cc2NC(=O)Nc2cccc(Cl)c2)c1 [Example 231]" measured_on="B-Raf(V599E) kinase (Homo sapiens, UniProt P15056, V600E)" recorded_number=27
molecule="CC(C)(C)c1cc(NC(=O)Nc2cccc(F)c2F)n(-c2cc(CO)c3ccccc3c2)n1 [Example 294]" measured_on="B-Raf(V599E) kinase (Homo sapiens, UniProt P15056, V600E)" recorded_number=3.3
molecule="CC(C)(C)c1cc(NC(=O)Nc2cccc(Cl)c2Cl)n(-c2ccc3c(c2)CCNC3=O)n1 [Example 137]" measured_on="B-Raf(V599E) kinase (Homo sapiens, UniProt P15056, V600E)" recorded_number=2.5
molecule="CC(C)(C)c1cc(NC(=O)Nc2ccc(F)c(F)c2F)n(-c2ccc3c(c2)CCNC3)n1 [Example 147]" measured_on="B-Raf(V599E) kinase (Homo sapiens, UniProt P15056, V600E)" recorded_number=10
molecule="CC(C)(C)c1cc(NC(=O)Nc2ccc(Cl)cc2)n(-c2cc(CCO)c3ccccc3c2)n1 [Example 302]" measured_on="B-Raf(V599E) kinase (Homo sapiens, UniProt P15056, V600E)" recorded_number=13
molecule="CC(C)(C)c1cc(NC(=O)Nc2cc(F)c(F)cc2F)n(-c2cc(CC(=O)NCC(O)CO)c3ccccc3c2)n1 (centres unmarked) [Example 94]" measured_on="B-Raf(V599E) kinase (Homo sapiens, UniProt P15056, V600E)" recorded_number=4.8

Origin of measurements: patent US8163756B2
